Entries and their VEGFR2 MCF7 RQ (relative quantification)
# TARGET_UNDER_TEST: VEGFR-2 (Homo sapiens, UniProt P35968)
# Sequence (P35968 20-1356): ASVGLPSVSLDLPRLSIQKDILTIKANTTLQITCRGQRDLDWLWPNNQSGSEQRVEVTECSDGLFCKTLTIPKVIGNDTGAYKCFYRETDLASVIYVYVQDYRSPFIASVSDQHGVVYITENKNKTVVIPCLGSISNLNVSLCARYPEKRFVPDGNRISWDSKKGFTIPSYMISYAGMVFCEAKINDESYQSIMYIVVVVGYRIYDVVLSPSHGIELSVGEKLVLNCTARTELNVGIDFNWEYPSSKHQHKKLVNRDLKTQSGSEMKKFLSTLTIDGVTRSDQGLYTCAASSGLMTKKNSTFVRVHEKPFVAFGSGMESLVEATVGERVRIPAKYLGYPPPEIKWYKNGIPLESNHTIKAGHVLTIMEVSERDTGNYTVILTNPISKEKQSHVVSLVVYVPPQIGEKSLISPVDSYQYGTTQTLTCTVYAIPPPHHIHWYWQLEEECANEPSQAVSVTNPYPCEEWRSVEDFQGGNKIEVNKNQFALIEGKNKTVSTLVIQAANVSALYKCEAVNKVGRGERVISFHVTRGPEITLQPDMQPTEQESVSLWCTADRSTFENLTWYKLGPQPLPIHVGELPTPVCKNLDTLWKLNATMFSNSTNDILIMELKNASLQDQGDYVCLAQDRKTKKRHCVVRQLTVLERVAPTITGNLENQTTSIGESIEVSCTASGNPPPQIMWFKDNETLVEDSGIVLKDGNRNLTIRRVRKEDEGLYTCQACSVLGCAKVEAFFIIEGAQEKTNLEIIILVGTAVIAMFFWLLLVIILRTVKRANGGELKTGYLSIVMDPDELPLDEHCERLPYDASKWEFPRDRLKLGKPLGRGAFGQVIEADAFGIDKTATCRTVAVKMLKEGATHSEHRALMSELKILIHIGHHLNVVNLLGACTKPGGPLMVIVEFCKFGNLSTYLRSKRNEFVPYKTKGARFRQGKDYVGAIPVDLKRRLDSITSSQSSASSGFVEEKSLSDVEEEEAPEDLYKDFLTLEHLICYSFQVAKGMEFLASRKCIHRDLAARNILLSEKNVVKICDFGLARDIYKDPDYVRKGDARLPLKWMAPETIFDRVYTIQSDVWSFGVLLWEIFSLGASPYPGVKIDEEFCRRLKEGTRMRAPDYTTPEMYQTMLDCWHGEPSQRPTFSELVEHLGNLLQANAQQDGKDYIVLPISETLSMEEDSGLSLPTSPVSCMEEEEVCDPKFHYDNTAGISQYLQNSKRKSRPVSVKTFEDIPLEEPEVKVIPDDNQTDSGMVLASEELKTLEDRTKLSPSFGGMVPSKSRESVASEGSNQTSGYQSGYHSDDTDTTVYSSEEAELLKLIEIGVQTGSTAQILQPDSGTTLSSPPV
# EXPERIMENTAL_DETAILS: VEGFR-2 Western blot in MCF7
# Type: cell-based
# REPORTED_CONDITIONS: Western blot at MTT-IC50, control RQ 3.725
Answer with the value's number alone.

Q: Please give the measured VEGFR2 MCF7 RQ (relative quantification) for this compound: COc1cc(/C=C2\CN(C(=O)c3cc(Cl)ccc3OC(C)=O)C/C(=C\c3cc(OC)c(OC)c(OC)c3)C2=O)cc(OC)c1OC
A: 1.38

Q: Same question, COc1ccc(/C=C2\CN(C(=O)c3ccccc3OC(C)=O)C/C(=C\c3ccc(OC)c(OC)c3)C2=O)cc1OC this time
A: 2.324

Q: // next record CC(=O)Oc1ccccc1C(=O)N1C/C(=C\c2ccc(F)cc2)C(=O)/C(=C/c2ccc(F)cc2)C1
A: 1.6

Q: Please give the result for CC(=O)Oc1ccc(Cl)cc1C(=O)N1C/C(=C\c2ccccc2)C(=O)/C(=C/c2ccccc2)C1 too.
A: 1.9
